ASSAYED TARGET: UniProtKB P00533
Sequence (P00533 25-1210): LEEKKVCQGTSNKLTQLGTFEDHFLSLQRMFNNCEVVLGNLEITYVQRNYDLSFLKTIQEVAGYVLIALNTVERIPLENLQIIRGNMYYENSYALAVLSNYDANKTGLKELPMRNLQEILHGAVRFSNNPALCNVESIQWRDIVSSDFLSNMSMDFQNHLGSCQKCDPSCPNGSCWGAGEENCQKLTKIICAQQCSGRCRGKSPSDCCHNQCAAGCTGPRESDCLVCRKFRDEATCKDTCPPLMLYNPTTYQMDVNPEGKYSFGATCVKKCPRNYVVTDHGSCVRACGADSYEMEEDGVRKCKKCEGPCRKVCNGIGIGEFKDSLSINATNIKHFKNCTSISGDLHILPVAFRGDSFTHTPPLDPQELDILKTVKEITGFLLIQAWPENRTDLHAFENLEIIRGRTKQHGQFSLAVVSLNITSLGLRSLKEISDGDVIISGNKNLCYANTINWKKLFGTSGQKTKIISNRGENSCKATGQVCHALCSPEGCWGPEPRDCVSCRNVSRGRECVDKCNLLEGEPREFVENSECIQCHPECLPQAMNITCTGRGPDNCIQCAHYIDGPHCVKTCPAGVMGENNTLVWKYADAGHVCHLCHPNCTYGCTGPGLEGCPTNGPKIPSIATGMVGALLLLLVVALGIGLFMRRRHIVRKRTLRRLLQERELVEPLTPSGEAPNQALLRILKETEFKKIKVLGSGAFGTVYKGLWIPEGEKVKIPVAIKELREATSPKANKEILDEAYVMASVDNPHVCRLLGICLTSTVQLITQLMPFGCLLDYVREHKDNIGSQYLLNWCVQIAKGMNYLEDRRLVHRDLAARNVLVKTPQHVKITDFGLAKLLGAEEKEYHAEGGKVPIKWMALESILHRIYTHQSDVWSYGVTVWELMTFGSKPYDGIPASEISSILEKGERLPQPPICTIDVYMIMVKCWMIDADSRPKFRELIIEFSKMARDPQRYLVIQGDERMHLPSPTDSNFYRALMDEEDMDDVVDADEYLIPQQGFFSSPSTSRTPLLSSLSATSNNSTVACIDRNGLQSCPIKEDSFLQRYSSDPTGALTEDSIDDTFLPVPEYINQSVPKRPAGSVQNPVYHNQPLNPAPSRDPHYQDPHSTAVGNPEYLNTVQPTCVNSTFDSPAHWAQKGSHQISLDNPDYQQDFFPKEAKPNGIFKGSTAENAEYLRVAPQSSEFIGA
METHOD DESCRIPTION: EGFR kinase assay (ELISA)
CONDITION SET: concentration 3000 nM; one value per replicate column
MEASURED ATTRIBUTE: inhibition at 3 µM (%)

Recorded results for 5 molecules are shown here.
MOLECULE: COCCOc1cc2ncnc(Nc3cccc(-c4cn(CCc5ccccc5)nn4)c3)c2cc1OCCOC
inhibition at 3 µM (%): 55.8
//
MOLECULE: COCCOc1cc2ncnc(Nc3cccc(-c4cn(-c5ccc(C)cc5O)nn4)c3)c2cc1OCCOC
inhibition at 3 µM (%): 26.1
//
MOLECULE: COCCOc1cc2ncnc(Nc3cccc(-c4cn(-c5ccc(C)cc5)nn4)c3)c2cc1OCCOC
inhibition at 3 µM (%): 50.8
//
MOLECULE: COCCOc1cc2ncnc(Nc3cccc(-c4cn(-c5cccc([N+](=O)[O-])c5)nn4)c3)c2cc1OCCOC
inhibition at 3 µM (%): 30.9
//
MOLECULE: COCCOc1cc2ncnc(Nc3cccc(-c4cn(Cc5ccccc5Br)nn4)c3)c2cc1OCCOC
inhibition at 3 µM (%): 42.8

[P] CCOc1cccc(-n2cc(-c3cccc(Nc4ncnc5cc(OCCOC)c(OCCOC)cc45)c3)nn2)c1
[Q] COCCOc1cc2ncnc(Nc3cccc(-c4cn(Cc5cc(Br)cc(Br)c5)nn4)c3)c2cc1OCCOC
Exercise: compare P and Q ; which one has the greater inhibition at 3 µM? Could you answer with the label of the item you picked?
P

[a] COCCOc1cc2ncnc(Nc3cccc(-c4cn(-c5ccc(OC)c(OC)c5)nn4)c3)c2cc1OCCOC
[b] COCCOc1cc2ncnc(Nc3cccc(-c4cn(-c5ccccc5OC)nn4)c3)c2cc1OCCOC
[c] COCCOc1cc2ncnc(Nc3cccc(-c4cn(-c5ccc(Br)cc5)nn4)c3)c2cc1OCCOC
[d] COCCOc1cc2ncnc(Nc3cccc(-c4cn(-c5ccccc5)nn4)c3)c2cc1OCCOC
Could you please sort these 4 entries by inhibition at 3 µM from high to low? Provide your answer as the labels ordered per the instruction.
d, c, b, a
(d: 68.1%, c: 38.4%, b: 13.3%, a: 8.29%)

[A] COCCOc1cc2ncnc(Nc3cccc(-c4cn(Cc5ccccc5)nn4)c3)c2cc1OCCOC [e1]
[B] COCCOc1cc2ncnc(Nc3cccc(-c4cn(-c5ccccc5C(F)(F)F)nn4)c3)c2cc1OCCOC
Exercise: compare A and B ; which one has the greater inhibition at 3 µM? Could you answer with the label of the item you picked?
A

[1] COCCOc1cc2ncnc(Nc3cccc(-c4cn(-c5ccc(OC)cc5OC)nn4)c3)c2cc1OCCOC
[2] COCCOc1cc2ncnc(Nc3cccc(-c4cn(Cc5ccccc5I)nn4)c3)c2cc1OCCOC [e2]
Exercise: compare 1 and 2 ; which one has the greater inhibition at 3 µM? Could you answer with the label of the item you picked?
2
